Target: T1, biotinylated CD3 epsilon:delta heterodimer protein (Amsbio AMS.CDD-H52WO) (Homo sapiens (Human), UniProt P07766 23-126; P04234 22-105)
T1 construct: also called CD3 heterodimer
Test: BLI (Octet), CD3 on SA sensor, Fab analyte;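 further: biolayer interferometry with biotinylated CD3 epsilon:delta captured on streptavidin sensors, Fab analyte at several concentrations up to 300 nM, 100 s association then 300 s dissociation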
Catalogue of binders with associated kon
OBSERVABLE: kon (M⁻¹ s⁻¹)

# BINDER, READOUT UNITS, NUMERIC VALUE
data = [
    ("huSP34.8.4 Fab-HF (Fab, V domains shown, also called HC8+LC4) VH: EVQLVESGGGLVQPGGSLRLSCAASGFTFSDYAMNWVRQAPGKGLEWVGRTRSKYNNYATYYAASVKGRFTISRDDSKNSLYLQMNSLKTEDTAVYYCVRHGNFGHSYVSWFAVWGQGTLVTVSS VL: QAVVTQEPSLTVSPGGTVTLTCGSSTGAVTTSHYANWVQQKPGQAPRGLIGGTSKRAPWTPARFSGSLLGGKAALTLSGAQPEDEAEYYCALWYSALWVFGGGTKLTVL", "M⁻¹ s⁻¹", 561000),
    ("huSP34.2.4 Fab-HF (Fab, V domains shown, also called HC2+LC4) VH: EVQLVESGGGLVQPGGSLRLSCAASGFTFSTYAMNWVRQAPGKGLEWVGRIRSKYNNYATYYAASVKGRFTISRDDSKNSLYLQMNSLKTEDTAMYYCVRHGNFGNSYVSWFAVWGQGTLVTVSS VL: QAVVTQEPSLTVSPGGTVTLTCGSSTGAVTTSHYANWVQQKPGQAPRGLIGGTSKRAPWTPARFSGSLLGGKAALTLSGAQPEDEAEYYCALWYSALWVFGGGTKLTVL", "M⁻¹ s⁻¹", 398000),
]

# credit: patent US20230056252A1
